All values here come from the nanobody polyreactivity screen of Harvey et al. (2022).

Test: yeast display, Sf9 membrane polyspecificity reagent, FACS + sequencing; frameworks hold sequencing errors
Metric: polyreactivity (PSR sort gate)

QVQLVESGGGVVQAGGSLRLSCAASGRIFYYNARGWYRQAPGKERELVAVISRNGGRTYYADSVKGRFTISRDNAKITVYLQMNSLKPEDTAVYYCAARSAGDRYDYWGQGTQVTVSS: high polyreactivity
QVQLVESGGGLVQAGGSLRLSCAASGRIFRVNAMGWYRQAPGKERELVARIDSGGRTNYADSVKGRFTISRDNAKNTVYLQMTSLKPEDTAVYYCARVFSLARSWYRYYYWGQGTQVTVSS: high polyreactivity
QVQLVESGGGLVQAGGSLRLSCAASGFNYYTMGWYRQAPGKERELVAAINYSGGRTYYADSVKGRFTISRDNAKNTVYLQMNSLKPEDTAVYYCNTARSPYDHRPERSYDYWGQGTQVTVSS: high polyreactivity

====

Test: yeast display, Sf9 membrane polyspecificity reagent, FACS + sequencing; frameworks hold sequencing errors
Metric: polyreactivity (PSR sort gate)

These solved cases illustrate the format of a correct answer.
QVQLVESGGGLVQAGGSLRLSCAASGRIFQTYTMGWYRQAPGKERELVARITGGDSTYYADSVKGRFTISRDNAKNTVYLQMNSLKPEDTAVYYCAGEVWSYWGTFNYWGQGTQVTVSS: low polyreactivity
QVQLVESGGGLVQAGGSLRLSCAASGIIFYDYAMVWYRQAPGKERELVAAISWGGGSTSYADSVKGRFTISRDNAKNTVYLQMNSLKPEDTAVYYCNKVSLSKRRDYYWGQGTQVTVSS: high polyreactivity
QVQLVESGGGLVQAGGSLRLSCAASGFIFYRYAMGWYRQAPGKERELVAAISWGGGSTTYYADSVKGRFTISRDNAKNTVYLQMNRLKPEDTAVYYCAAYIGKGYGSEYYYWGQGTQVTVSS: low polyreactivity
QVQLVESGGGLVQAGGSLRLSCAASGLIFSYNAMGWYRQAPGTEMELVASITGGGSTYYADSVKGRFTISRDNAKNTVYFQIKSQKPEDTAVYYCAVVRLWYAQPAAGFRAGGGYWGQGTQVTLSS: low polyreactivity
QVQLVESGGGLVQAGGSLRLSCAASGRIYGNAMGWYRQAPGKERELDAAISFSVSSTNYADSVKGRFTISRDNAKNTVYLQMNSLKPEDTAVYYCAADWIGPTYPEMYYWGQGTQVTVSS: low polyreactivity
QVQLVESGGGLVQAGGSLRLSCAASGRIFAHNAMGWYRQAPGKERELGASINSGGSTTYADSVKGRFTISRDNAKNTVYLQMNSLKPEDTAVYDCAKRDKYGKYDYWGQGTQVTVSS: low polyreactivity

Value sought for every listed sequence: polyreactivity (PSR sort gate).
1. QVQLVESGGGLVQAGGSLRLSCAASGSTFEYYAMGWYRQAPGKERELVAAISTSGGSTYYADSVKGRFTISRDNAKNTVYLQMNSLKPEDTAVYYCNRGRRYSHKYDYWGQGTQVTVSS
2. QVQLVESGGGLVQAGGSLGLSCAASGSIFSSNVMGWYRQAPGKERELVAAISGGGGSTYYADSVKGRFTISRDNAKNTGYLQMNSLKPEDTAVYYCNRVTTWARTPKAYGYWGQGTQVTVSS
3. QVQLVESGGGLVQAGGSLRLSGAASGRIFQRYVMGWYRQAPGKERELVAAISYSGARTYYADSVKGRFTISRDNAKNTVYLQMNSLKPEDTAVYYCAARIRNWPAMDYWGQGTQETVSS
4. QVQLVESGGGLVQAGGSHRLSCAASGSTFNYYAMGWYRQAPGKERELVAAISRGGSTYYADSVKGRFTISRDNAKNTVYLQMNSLKPEDNAVYYCHARPTRIYHGMGFWGQGTQVNVSS

RESULT:
1. high polyreactivity
2. high polyreactivity
3. high polyreactivity
4. low polyreactivity
